The variants listed here are annotated with their self-cleavage.
B1: Osa-1-4 twister ribozyme (parent)
chain: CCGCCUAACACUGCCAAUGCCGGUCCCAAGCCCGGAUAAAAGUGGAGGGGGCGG

variants of: B1; test: self-cleavage, relative activity (ratio to wild type); higher = more cleavage; co-transcriptional
Answer with a number only.

Below are worked cases with known answers.
CCGCCUCACACUGACAAUGCCGGUCCCAAGCCCGGAUAAAAGUGGAGGGGGCGG [A7C C14A] ... 0.04
CCGCCUAAAUCUGCCAAUGCCGGUCCCAAGCCCGGAUAAAAGUGGAGGGGGCGG [A10U C9A] ... 0.04

[ask] Look at this variant and give its reported self-cleavage. CCGCCUAACACUGCCAAUGCCAGUCCCAAGCCCGGAUAGAAGUGGAGGGGGCGG [A39G G22A]
[reply] 0.95

[ask] What do we get for CCGCCUAACACUGCCCAUGCCGGUCCCAAUCCCGGAUAAAAGUGGAGGGGGCGG [A16C G30U] ?
[reply] 0.04

All figures here come from the RNAGym collection of RNA variant scans (doi:10.1002/anie.201605470).
